Data origin: ChEMBL document CHEMBL1136767

study-system: Histamine H3 receptor (Homo sapiens)
Sequence (Q9Y5N1 whole entry): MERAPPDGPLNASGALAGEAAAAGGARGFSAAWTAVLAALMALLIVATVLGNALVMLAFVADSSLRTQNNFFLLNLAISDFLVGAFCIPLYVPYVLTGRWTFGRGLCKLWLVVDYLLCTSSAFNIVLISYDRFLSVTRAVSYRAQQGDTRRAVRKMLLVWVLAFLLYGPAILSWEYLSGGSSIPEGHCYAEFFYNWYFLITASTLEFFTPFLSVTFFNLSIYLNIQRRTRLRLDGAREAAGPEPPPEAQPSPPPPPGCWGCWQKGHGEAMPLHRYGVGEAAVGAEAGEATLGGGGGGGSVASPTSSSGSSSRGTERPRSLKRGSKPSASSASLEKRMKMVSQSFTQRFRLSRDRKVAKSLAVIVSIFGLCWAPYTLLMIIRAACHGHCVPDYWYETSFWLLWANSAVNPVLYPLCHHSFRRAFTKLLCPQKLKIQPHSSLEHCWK
procedure-details: Displacement of [125I]iodoproxyfan from human histamine H3 receptor expressing CHO cells
Assay type: cell-based
Classify: yes (1) when Ki is strictly less than 100 nM; no (0) when Ki is not.

Check if Ki falls below 100 nM for c1ccc(Cc2ccc(OCc3ccc(CN4CCCCC4)cc3)cc2)cc1 . no (0)

Check if Ki falls below 100 nM for Fc1cc(OCc2ccc(CN3CCCCC3)cc2)ccc1Cl . yes (1)

Check if Ki falls below 100 nM for Cc1ccc(OCc2ccc(CN3CCCCC3)cc2)cc1C . no (0)

Check if Ki falls below 100 nM for Clc1ccc(OCc2ccc(CN3CCCCC3)cc2)cc1Cl . no (0)

Check if Ki falls below 100 nM for Cc1cc(OCc2ccc(CN3CCCCC3)cc2)ccc1Cl . yes (1)

***
Check if Ki falls below 100 nM for CCCCc1ccc(OCc2ccc(CN3CCCCC3)cc2)cc1 . no (0)

Check if Ki falls below 100 nM for COc1ccc(OCc2ccc(CN3CCCCC3)cc2)cc1 . no (0)

Check if Ki falls below 100 nM for Brc1ccc(OCc2ccc(CN3CCCCC3)cc2)cc1 . no (0)

====

Below is a list of entries, each paired with its recorded ED50 value.
study-system: Histamine H3 receptor (Mus musculus)
procedure-details: In vivo effects in mice against H3 receptor on N6-methylhistamine levels in brain (following oral dosing of compound)
Type: functional, organism-based
The reply should be a number in mg/kg, with the unit left off.

Quick one: give measured ED50 for CCCCc1ccc(OCc2ccc(CN3CCCCC3)cc2)cc1 2.8

Quick one: give measured ED50 for Fc1ccc(OCc2ccc(CN3CCCCC3)cc2)cc1 15

Quick one: give measured ED50 for CCCCCc1ccc(OCc2ccc(CN3CCCCC3)cc2)cc1 3

Here is the next item to consider.
Quick one: give measured ED50 for O=[N+]([O-])c1ccc(OCCCCCN2CCCC2)cc1 1.1

====

study-system: Histamine H1 receptor (Cavia porcellus)
Sequence (P31389 whole entry): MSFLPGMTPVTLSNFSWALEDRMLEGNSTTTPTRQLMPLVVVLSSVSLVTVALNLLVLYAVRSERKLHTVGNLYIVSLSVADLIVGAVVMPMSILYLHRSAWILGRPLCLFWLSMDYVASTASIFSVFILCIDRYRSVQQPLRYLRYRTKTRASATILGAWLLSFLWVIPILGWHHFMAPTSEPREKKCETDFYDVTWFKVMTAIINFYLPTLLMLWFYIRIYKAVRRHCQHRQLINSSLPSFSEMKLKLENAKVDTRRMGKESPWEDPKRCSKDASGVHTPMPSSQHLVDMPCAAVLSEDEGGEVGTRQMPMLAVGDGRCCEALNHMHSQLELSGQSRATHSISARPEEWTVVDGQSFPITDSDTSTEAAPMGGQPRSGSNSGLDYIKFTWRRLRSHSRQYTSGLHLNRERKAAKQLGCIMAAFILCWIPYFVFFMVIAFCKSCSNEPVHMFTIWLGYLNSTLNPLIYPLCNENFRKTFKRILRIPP
procedure-details: Potency at histamine H1 receptor subtype, was tested on guinea pig right ileum
Format: tissue-based
condition-notes: read-out: pA2 (converted)
experimental-endpoint: Kb
Provide a numeric answer, followed by its unit.

Use the examples below as a reference point.
Quick one: give measured Kb for CC(=O)c1ccc(OCc2ccc(CN3CCCC3)cc2)cc1 9.33 µM

Quick one: give measured Kb for CO/N=C(\C)c1ccc(OCc2ccc(CN3CCCCC3)cc2)cc1 3.47 µM

Quick one: give measured Kb for C/C(=N\O)c1ccc(OCc2ccc(CN3CCCCC3)cc2)cc1 7.94 µM

***
Quick one: give measured Kb for CC(=O)c1ccc(OCc2ccc(CN3CCCCC3)cc2)cc1 4.57 µM

====

study-system: Histamine N-methyltransferase (Rattus norvegicus)
Sequence (Q01984 whole entry): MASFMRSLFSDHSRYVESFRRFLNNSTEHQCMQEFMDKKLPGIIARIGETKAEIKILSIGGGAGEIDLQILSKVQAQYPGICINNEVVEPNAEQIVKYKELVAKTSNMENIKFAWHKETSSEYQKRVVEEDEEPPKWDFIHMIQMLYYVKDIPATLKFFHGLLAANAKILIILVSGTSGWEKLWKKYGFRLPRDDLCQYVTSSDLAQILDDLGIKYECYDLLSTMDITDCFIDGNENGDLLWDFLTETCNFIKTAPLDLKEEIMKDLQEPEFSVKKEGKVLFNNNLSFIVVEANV
experimental-endpoint: pIC50
A value of pIC50 is the negative decimal logarithm of a concentration given in moles per litre.

Give pIC50 for CC(=O)c1ccc(OCc2ccc(CN3CCCCC3)cc2)cc1 tested on Histamine N-methyltransferase (Rattus norvegicus). 4.98

====

study-system: Histamine H3 receptor (Mus musculus)
procedure-details: In vivo effects in mice against H3 receptor on N6-methylhistamine levels in brain (following oral dosing of compound)
Type: functional, organism-based
Below is a list of entries, each paired with its recorded ED50 value.
The reply should be a number in mg/kg, with the unit left off.

Use the examples below as a reference point.
Quick one: give measured ED50 for CCc1ccc(OCc2ccc(CN3CCCCC3)cc2)cc1 2.2

Quick one: give measured ED50 for O=C(c1ccc(OCc2ccc(CN3CCCCC3)cc2)cc1)C1CC1 5.9

Here is the next item to consider.
Quick one: give measured ED50 for CC(C)c1ccc(OCc2ccc(CN3CCCCC3)cc2)cc1 3
